Molecular target: Corticotropin-releasing factor receptor 1 (Homo sapiens)
Assay: Displacement of [125I]sauvagine from human recombinant CRF1 receptor expressed in CHO cells
readoutKind: IC50 (nM)
Just the number in nM, nothing appended.

Enter recorded IC50 with Corticotropin-releasing factor receptor 1 (Homo sapiens) for "COc1cc(-n2cccn2)ccc1N1CCc2c(-n3ccc(-n4cc[nH]c4=O)n3)cc(C)nc21" here.
363

Give IC50 for this entry on Corticotropin-releasing factor receptor 1 (Homo sapiens): "Cc1cc(-n2ccc(N3CCNC3=O)n2)c2c(n1)N(c1ccc(OC(C)C)cc1C)CC2"
1230

Please report the measured IC50 for "COc1ccc(N2CCc3c(-n4ccc(N5CCCC5=O)n4)cc(C)nc32)c(C)c1" tested on Corticotropin-releasing factor receptor 1 (Homo sapiens).
123

Others:
Answer with IC50 of "Cc1cc(-n2ccc(N3CCNC3=O)n2)c2c(n1)N(c1ccc(C#N)cc1C(F)(F)F)CC2" measured for Corticotropin-releasing factor receptor 1 (Homo sapiens).
32.4

Answer briefly: IC50 recorded on Corticotropin-releasing factor receptor 1 (Homo sapiens) for "Cc1cc(-n2ccc(N3CCNC3=O)n2)c2c(n1)N(c1ccc(OC(F)(F)F)cc1C)CC2"
67.6

Enter measured IC50, system Corticotropin-releasing factor receptor 1 (Homo sapiens), for the compound shown: "COc1ccc(N2CCc3c(-n4ccc(N5CCNC5=O)n4)cc(C)nc32)c(C(F)F)c1"
56.2

Under Corticotropin-releasing factor receptor 1 (Homo sapiens), report IC50 for "COc1ccc(N2CCc3c(-n4ccc(N5CCCNC5=O)n4)cc(C)nc32)c(C)c1"
145

Quote IC50 with test system Corticotropin-releasing factor receptor 1 (Homo sapiens) for "CCc1cc(C#N)ccc1N1CCc2c(-n3ccc(N4CCNC4=O)n3)cc(C)nc21"
50.1

Under Corticotropin-releasing factor receptor 1 (Homo sapiens), report IC50 for "CCOc1ccc(N2CCc3c(-n4ccc(N5CCNC5=O)n4)cc(C)nc32)c(C)c1"
316

Report IC50 on Corticotropin-releasing factor receptor 1 (Homo sapiens) for this entry: "COc1ccc(N2CCc3c(-n4ccc(-n5cc[nH]c5=O)n4)cc(C)nc32)c(C)c1"
120

Would you please give the reported IC50 of "Cc1cc(-n2ccc(N3CCNC3=O)n2)c2c(n1)N(c1ccc(C#N)cc1C)CC2" with Corticotropin-releasing factor receptor 1 (Homo sapiens)?
67.6

Check Corticotropin-releasing factor receptor 1 (Homo sapiens) data and give IC50 for "COc1ccc(N2CCc3c(-n4ccc(N5CCNC5=O)n4)cc(C)nc32)c(C)c1" .
66.1

For Corticotropin-releasing factor receptor 1 (Homo sapiens), give IC50 of the listed compound: "COc1ccc(N2CCc3c(-n4ccc(N5CCOC5=O)n4)cc(C)nc32)c(C)c1"
1950

Please report IC50 with Corticotropin-releasing factor receptor 1 (Homo sapiens) for item "Cc1cc(-n2ccc(N3CCNC3=O)n2)c2c(n1)N(c1ccc(Cl)cc1Cl)CC2" .
158

# return IC50 of "Cc1cc(-n2ccc(N3CCNC3=O)n2)c2c(n1)N(c1ccc(-n3cccn3)cc1C)CC2" (system: Corticotropin-releasing factor receptor 1 (Homo sapiens))
372

* * *

Assay: Ratio of drug level in brain to plasma in gerbil at 10 mg/kg, po after 1 hr
Type: ADME, organism-based
Design: dose 10 mg/kg, route oral
Conditions: gerbillinae, brain and plasma
readoutKind: Kp at 1 h
// return a plain number; no unit text

Identify the reported Kp at 1 h for the following entry. COc1ccc(N2CCc3c(-n4ccc(N5CCNC5=O)n4)cc(C)nc32)c(C)c1 [EMICERFONT]
4.7

* * *

Test: Half life in rat at 1 mg/kg, iv or 10 mg/kg, po
Type: ADME, organism-based
Conditions: in vivo
readoutKind: half-life (h)
Note: unit h is implicit; provide only the numeric part.

Retrieve half-life measured for COc1ccc(N2CCc3c(-n4ccc(N5CCNC5=O)n4)cc(C)nc32)c(C)c1 [EMICERFONT] and print it.
1.6

* * *

Experiment: Volume of distribution at steady state in marmoset at 1 mg/kg, iv or 10 mg/kg, po
Format: ADME, organism-based, Callithrix jacchus
Conditions: in vivo, read-out: Vdss
readoutKind: Vd (L/kg)
Answer in L/kg, number only, no unit symbol.

Identify measured Vd corresponding to "COc1ccc(N2CCc3c(-n4ccc(N5CCNC5=O)n4)cc(C)nc32)c(C)c1"
4.7

* * *

Assay: Half life in marmoset at 1 mg/kg, iv or 10 mg/kg, po
Format: ADME, organism-based, Callithrix jacchus
Conditions: in vivo
readoutKind: half-life (min)
Just the number in min, nothing appended.

State, in one line, measured half-life of "COc1ccc(N2CCc3c(-n4ccc(N5CCNC5=O)n4)cc(C)nc32)c(C)c1"
222

* * *

Experiment: Ratio of drug level in brain to plasma in rat at 1 mg/kg, iv after 1 hr
Format: ADME, organism-based
Design: dose 1 mg/kg, route intravenous
Conditions: brain and plasma
readoutKind: Kp at 1 h
API doc: respond with a numeric literal and nothing else, no unit.

Write down Kp at 1 h measured for item "COc1ccc(N2CCc3c(-n4ccc(N5CCNC5=O)n4)cc(C)nc32)c(C)c1"
3.7

* * *

Assay: Plasma clearance in marmoset at 1 mg/kg, iv or 10 mg/kg, po
Type: ADME, organism-based, Callithrix jacchus
readoutKind: clearance (mL/min/kg)
Please give a number only; it is taken to be in mL/min/kg.

Could you please provide reported clearance for COc1ccc(N2CCc3c(-n4ccc(N5CCNC5=O)n4)cc(C)nc32)c(C)c1 [EMICERFONT] ? Thanks!
16

* * *

Experiment: Oral bioavailability in rat at 10 mg/kg
Assay type: ADME, organism-based
Settings: in vivo
readoutKind: bioavailability (%)
All answers are understood in %, so give the number only.

Supply measured bioavailability of "COc1ccc(N2CCc3c(-n4ccc(N5CCNC5=O)n4)cc(C)nc32)c(C)c1" in your reply.
66

* * *

Experiment: Volume of distribution at steady state in rat at 1 mg/kg, iv or 10 mg/kg, po
Format: ADME, organism-based
Conditions: in vivo, read-out: Vdss
readoutKind: Vd (L/kg)
Output spec: scalar in L/kg, unitless text.

Give the reported value of Vd for this record: COc1ccc(N2CCc3c(-n4ccc(N5CCNC5=O)n4)cc(C)nc32)c(C)c1 [EMICERFONT]
2.4

* * *

The compounds listed here are annotated with their IC50.
Target: Corticotropin-releasing factor receptor 1 (Homo sapiens, UniProt P34998)
Sequence (P34998 whole entry): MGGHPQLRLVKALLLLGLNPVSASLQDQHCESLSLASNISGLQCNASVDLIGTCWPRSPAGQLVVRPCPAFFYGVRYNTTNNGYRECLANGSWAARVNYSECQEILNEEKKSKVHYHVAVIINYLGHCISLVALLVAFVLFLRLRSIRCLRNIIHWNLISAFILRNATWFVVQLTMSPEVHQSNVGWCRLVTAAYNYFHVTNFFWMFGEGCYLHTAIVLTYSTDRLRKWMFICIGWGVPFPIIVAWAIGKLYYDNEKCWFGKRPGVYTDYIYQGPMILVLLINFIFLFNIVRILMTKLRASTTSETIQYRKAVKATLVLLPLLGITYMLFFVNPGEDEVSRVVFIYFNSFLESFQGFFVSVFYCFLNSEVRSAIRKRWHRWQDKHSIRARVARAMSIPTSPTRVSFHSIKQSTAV
Assay: Displacement of [125I]sauvagine from human recombinant CRF1 receptor expressed in CHO cells
Output should be the measured figure followed by the unit it is expressed in.

Check the records and state IC50 for "Cc1cc(-n2ccc(-n3cc[nH]c3=O)n2)c2c(n1)N(c1ccc(C(F)(F)F)cc1C(F)(F)F)CC2"
89.1 nM

Annotate the compound "COc1ccc(N2CCc3c(-n4ccc(N5CCNS5(=O)=O)n4)cc(C)nc32)c(C)c1" with its measured IC50.
309 nM

Please look at this compound and report its IC50: "Cc1cc(-n2ccc(N3CCNC3=O)n2)c2c(n1)N(c1ccc(C#N)cc1OC(F)(F)F)CC2"
120 nM

Give IC50 for the following compound: "COc1ccc(N2CCc3c(-n4ccc(N5CCCS5(=O)=O)n4)cc(C)nc32)c(C)c1"
3240 nM

// fetch IC50 given entry "COc1ccc(N2CCc3c(-n4ccc(N5CCN(C)C5=O)n4)cc(C)nc32)c(C)c1"
794 nM
